Source: patent US20230033285A1

Exercise: for every item that follows, state its recorded EC50.
- Tested on: SARS-CoV-2
- MEASUREMENT DESCRIPTION: microbe, parasite or virus in culture
- Type: cell-based
- CONDITION NOTES: Severe acute respiratory syndrome coronavirus 2; HeLa-ACE2 cells infected with SARS-CoV-2, 24 h, immunofluorescence of infected cells; read-out: EC50, μM (Hela)

Item O=C(Nc1ccccc1F)C(=O)N1C[C@@H]2CCC[C@@H]2[C@H]1C(=O)N[C@@H](C[C@@H]1CCNC1=O)C(=O)CO has what recorded EC50?
0.05 to 0.2 µM

CC(C)(C)C[C@H](NC(=O)C(=O)Nc1ccccc1C(C)(C)C)C(=O)N[C@@H](C[C@@H]1CCCNC1=O)C(=O)CO ?
< 0.05 µM

Next molecule: Cc1cccc(C)c1NC(=O)C(=O)N[C@@H](CC(C)C)C(=O)N[C@@H](C[C@@H]1CCNC1=O)C(=O)COC(=O)C(=O)c1ccccc1
0.05 to 0.2 µM

Can you check CC(C)CCC(=O)N1CC2(CC2)C[C@H]1C(=O)N[C@H](C#N)C[C@@H]1CCNC1=O next?
> 1 µM

// same read-out, input: Cc1ccccc1NC(=O)C(=O)N[C@@H](CC(C)C)C(=O)N[C@H](C=O)C[C@@H]1CCNC1=O
0.05 to 0.2 µM

And for CC(C)C[C@H](NC(=O)OCc1cccc(Cl)c1)C(=O)N[C@@H](C[C@@H]1CCNC1=O)C(=O)COC(=O)C(C)C ?
> 1 µM

* * *

Would you kindly list EC50 for each of these compounds?
- System: SARS-CoV-2
- MEASUREMENT DESCRIPTION: microbe, parasite or virus in culture
- Type: cell-based
- CONDITION NOTES: Severe acute respiratory syndrome coronavirus 2; HeLa-ACE2 cells infected with SARS-CoV-2, 24 h, immunofluorescence of infected cells; read-out: EC50, μM (Hela)

Requested field: EC50. Item: CCCCCCC(=O)OCC(=O)[C@H](C[C@@H]1CCNC1=O)NC(=O)[C@H](CC1CCCCC1)NC(=O)C(=O)NC1CCCCC1
0.2 to 0.5 µM

And for O=C[C@H](C[C@@H]1CCCNC1=O)NC(=O)[C@@H]1[C@H]2CCC[C@H]2CN1C(=O)COc1ccc(Cl)cc1Cl ?
0.05 to 0.2 µM

Same question for CCCCCCC(=O)OCC(=O)[C@H](C[C@@H]1CCNC1=O)NC(=O)[C@H](CC(C)C)NC(=O)C(=O)NC1CCCCC1 please.
0.05 to 0.2 µM

Same thing, different compound: CC(C)C[C@H](NC(=O)C(=O)NC1(C)CC1)C(=O)N[C@H](C=O)C[C@@H]1CCNC1=O
> 1 µM

Quick one: O=C[C@H](C[C@@H]1CCNC1=O)NC(=O)[C@H](CC1CC1)NC(=O)c1cc(-c2ccccc2F)on1
0.05 to 0.2 µM

Proceed to CC1(C[C@H](NC(=O)C(=O)NC23CC(F)(C2)C3)C(=O)N[C@@H](C[C@@H]2CCNC2=O)C(=O)CO)CCC1
0.05 to 0.2 µM

Now try N#C[C@H](C[C@@H]1CCCNC1=O)NC(=O)[C@@H]1[C@H]2CCC[C@H]2CN1C(=O)COc1ccc(Cl)cc1Cl .
0.5 to 1 µM

Now give it for O=C(Nc1ccccc1F)C(=O)N1C[C@@H]2CCC[C@@H]2[C@H]1C(=O)N[C@@H](C[C@@H]1CCCNC1=O)C(=O)CO too.
0.05 to 0.2 µM

Repeat for the following compound: CC(C)(C)C[C@H](NC(=O)C(=O)Nc1ccccc1C(F)(F)F)C(=O)N[C@H](C[C@@H]1CCCNC1=O)C(=O)CO
> 1 µM

Try this compound too: CC(C)(C)C[C@H](NC(=O)C(=O)Nc1cccc(C(F)(F)F)c1)C(=O)N[C@@H](CC1CCCNC1=O)C(=O)CO (stereo partly shown)
< 0.05 µM

Try CC(C)C[C@H](NC(=O)OCc1cccc(Cl)c1)C(=O)N[C@@H](C[C@@H]1CCNC1=O)C(=O)CO next.
> 1 µM

And CC1(C)[C@@H]2[C@@H](C(=O)N[C@H](C#N)C[C@@H]3CCNC3=O)N(C(=O)C(=O)NC3(C(F)(F)F)CC3)C[C@@H]21 ?
> 1 µM

Query COc1cccc2[nH]c(C(=O)N[C@@H](CC(C)C)C(=O)N[C@@H](C[C@@H]3CCCNC3=O)C(=O)CO)cc12 next
0.5 to 1 µM
